testDetails: Metabolic stability in human liver microsomes
Assay type: ADME, Microsome
reportedEndpoint: half-life

The value of half-life measured for the compound COC(=O)Nc1ccc2oc3cc(S(=O)(=O)N[C@H](C(=O)O)C(C)C)ccc3c2c1 turned out to be > 1 h

====

testDetails: Cmax in C57BL/6 mouse at 30 mg/kg, po
Assay type: ADME, organism-based
Design: dose 30 mg/kg, route oral
experimentalContext: in vivo
Reported values of Cmax for individual entries
Form entry: value (ng/mL) — number only.

Past entries and their recorded results:
COC(=O)Nc1ccc2oc3cc(S(=O)(=O)N[C@H](C(=O)O)C(C)C)ccc3c2c1; 3080
CC(C)[C@@H](NS(=O)(=O)c1ccc2oc3cc(NS(C)(=O)=O)ccc3c2c1)C(=O)O; 103
CCOC(=O)Nc1ccc2oc3cc(S(=O)(=O)N[C@H](C(=O)O)C(C)C)ccc3c2c1; 7790

// below: Cmax requested for another molecule
The value of Cmax measured for the molecule COC(=O)Nc1ccc2c(c1)oc1ccc(S(=O)(=O)N[C@@H](C(=O)O)C(C)C)cc12 turned out to be 10600

====

testDetails: Half life in C57BL/6 mouse at 30 mg/kg, po
Type: ADME, organism-based
Parameters: dose 30 mg/kg, route oral
experimentalContext: in vivo
Reported values of half-life for individual entries
Form entry: value (h) — number only.

CCOC(=O)Nc1ccc2oc3cc(S(=O)(=O)N[C@H](C(=O)O)C(C)C)ccc3c2c1; 3.4
COC(=O)Nc1ccc2oc3cc(S(=O)(=O)N[C@H](C(=O)O)C(C)C)ccc3c2c1; 3
CC(C)[C@@H](NS(=O)(=O)c1ccc2oc3cc(NS(C)(=O)=O)ccc3c2c1)C(=O)O; 2

// below: half-life requested for another compound
The value of half-life measured for the compound COC(=O)Nc1ccc2c(c1)oc1ccc(S(=O)(=O)N[C@@H](C(=O)O)C(C)C)cc12 turned out to be 2.7

====

testDetails: Metabolic stability in mouse liver microsomes
Assay type: ADME, Microsome
reportedEndpoint: half-life

The value of half-life measured for the compound COC(=O)Nc1ccc2oc3cc(S(=O)(=O)N[C@H](C(=O)O)C(C)C)ccc3c2c1 turned out to be > 60 min

====

Reported values of IC50 for individual entries
tgt: Collagenase 3 (Homo sapiens)
testDetails: Inhibition of human recombinant MMP13 expressed in Escherichia coli
Form entry: value (nM) — number only.

CCCOC(=O)Nc1ccc2c(c1)oc1ccc(S(=O)(=O)N[C@@H](C(=O)O)C(C)C)cc12; 109

The value of IC50 measured for the compound COC(=O)Nc1ccc2oc3cc(S(=O)(=O)N[C@H](C(=O)O)C(C)C)ccc3c2c1 turned out to be 120

The value of IC50 measured for the compound CC(C)[C@@H](NS(=O)(=O)c1ccc2oc3cc(NS(=O)(=O)C(C)C)ccc3c2c1)C(=O)O turned out to be 120

====

tgt: Collagenase 3 (Homo sapiens, UniProt P45452)
testDetails: Inhibition of human recombinant MMP13 expressed in Escherichia coli
pIC50: −log10 of the molar value.
Use 7 as the dividing line for pIC50, with the line itself on the fulfilled side and lower values as not fulfilled.

CC(C)[C@H](NS(=O)(=O)c1ccc2c(c1)oc1cc(NC(=O)Oc3ccc(F)cc3)ccc12)C(=O)O; not fulfilled
CC(C)[C@@H](NS(=O)(=O)c1ccc2oc3cc(NC(=O)Oc4ccccc4)ccc3c2c1)C(=O)O; not fulfilled
CC(C)[C@H](NS(=O)(=O)c1ccc2c(c1)oc1ccc(NC(=O)NC3CCCC3)cc12)C(=O)O; fulfilled
CC(C)[C@H](NS(=O)(=O)c1ccc2c(c1)oc1ccc(NC(=O)Oc3ccccc3Cl)cc12)C(=O)O; not fulfilled
COC(=O)Nc1ccc2c(c1)oc1cc(S(=O)(=O)N[C@H](C(=O)O)C(C)C)ccc12; not fulfilled

Enquiry: Quick check: does CC(C)[C@H](NS(=O)(=O)c1ccc2oc3ccccc3c2c1)C(=O)O have pIC50 greater than or equal to 7?
Return: not fulfilled

Enquiry: Quick check: does COC(=O)Nc1ccc2c(c1)oc1ccc(S(=O)(=O)N[C@@H](C(=O)O)C(C)C)cc12 have pIC50 greater than or equal to 7?
Return: not fulfilled

Enquiry: Quick check: does COC(=O)Nc1cc2oc3ccc(S(=O)(=O)N[C@@H](C(=O)O)C(C)C)cc3c2cc1Br have pIC50 greater than or equal to 7?
Return: not fulfilled

Enquiry: Quick check: does CC(C)[C@H](NS(=O)(=O)c1ccc2c(c1)oc1ccc(NC(=O)OCCF)cc12)C(=O)O have pIC50 greater than or equal to 7?
Return: fulfilled

Enquiry: Quick check: does CC(C)COC(=O)Nc1ccc2oc3cc(S(=O)(=O)N[C@H](C(=O)O)C(C)C)ccc3c2c1 have pIC50 greater than or equal to 7?
Return: fulfilled

Enquiry: Quick check: does CC(C)[C@H](NS(=O)(=O)c1ccc2c(c1)oc1ccc(NC(N)=O)cc12)C(=O)O have pIC50 greater than or equal to 7?
Return: fulfilled

Enquiry: Quick check: does COC(=O)Nc1cc2oc3ccc(S(=O)(=O)N[C@H](C(=O)O)C(C)C)cc3c2cc1Br have pIC50 greater than or equal to 7?
Return: not fulfilled

FYI, the data here is from ChEMBL document CHEMBL1153372.
